Tested on: COG-LL-319h;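 note: ALL cell lines in 384-well plates, five doses spanning 10,000-fold, each plate scaled between vehicle and 100 µmol/L benzalkonium chloride controls, sDSS an adapted area-under-curve metric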
Experiment: selective drug sensitivity score (sDSS, relative to normal bone marrow) (sDSS (score)); higher = more potent and effective on the cell line relative to normal bone marrow cells
Measurement conditions: 72 h
Classes are defined on selective drug sensitivity score with ranges A (below -0.1), B (-0.1 to below 0.4), C (0.4 or more)

- Molecule: "NC(=O)/C(=C/n1cnc(-c2cc(C(F)(F)F)cc(C(F)(F)F)c2)n1)c1cncnc1 [Eltanexor] (top concentration 10000 nM)"
  Test system: "COG-LL-319h"
  Assigned label: "C"
- Molecule: "c1cn2cc(-c3ccc4cn[nH]c4c3)nc(Nc3ccc(N4CCOCC4)cc3)c2n1 [Entospletinib] (top concentration 5000 nM)"
  Test system: "COG-LL-319h"
  Assigned label: "A"
- Molecule: "Clc1ccccc1C(c1ccccc1)(c1ccccc1)n1cccn1 [TRAM-34] (top concentration 1000 nM)"
  Test system: "COG-LL-319h"
  Assigned label: "B"
- Molecule: "C=CC(=O)Nc1cccc(Nc2nc(Nc3ccc(N4CCN(C(C)=O)CC4)cc3OC)ncc2C(F)(F)F)c1 [Rociletinib] (top concentration 10000 nM)"
  Test system: "COG-LL-319h"
  Assigned label: "B"
- Molecule: "COc1cc(N2CCN(C)CC2)ccc1Nc1nccc(-c2cn(C)c3cnccc23)n1 [AZ191] (top concentration 10000 nM)"
  Test system: "COG-LL-319h"
  Assigned label: "A"
- Molecule: "CC(=O)c1c(C)c2cnc(Nc3ccc(N4CCNCC4)cn3)nc2n(C2CCCC2)c1=O [Palbociclib] (top concentration 10000 nM)"
  Test system: "COG-LL-319h"
  Assigned label: "B"
- Molecule: "Nc1cc(C(F)(F)F)c(-c2cc(N3CCOCC3)nc(N3CCOCC3)n2)cn1 [Buparlisib] (top concentration 10000 nM)"
  Test system: "COG-LL-319h"
  Assigned label: "C"
- Molecule: "O=C1CCc2c(Oc3ccc4c(c3)[C@@H]3[C@H](O4)[C@H]3c3nc4cc(C(F)(F)F)ccc4[nH]3)ccnc2N1 [Lifirafenib (BGB-283)] (top concentration 10000 nM)"
  Test system: "COG-LL-319h"
  Assigned label: "A"
- Molecule: "CC(C)[C@H]1C(=O)N[C@@H](CCCNC(=N)N)C(=O)NCC(=O)N[C@@H](CC(=O)O)C(=O)N[C@H](Cc2ccccc2)C(=O)N1C [Cilengitide] (top concentration 10000 nM)"
  Test system: "COG-LL-319h"
  Assigned label: "B"
- Molecule: "O=C1CCC(N2C(=O)c3ccccc3C2=O)C(=O)N1 (stereo not drawn) [Thalidomide] (top concentration 10000 nM)"
  Test system: "COG-LL-319h"
  Assigned label: "A"
- Molecule: "CC[C@@H]1C(=O)OC[C@@H]1Cc1cncn1C [Pilocarpine] (top concentration 40000 nM)"
  Test system: "COG-LL-319h"
  Assigned label: "A"
- Molecule: "O=C(Nc1cccc(NC(=O)c2cccc(O)c2O)c1)c1cccc(O)c1O [MST-312] (top concentration 10000 nM)"
  Test system: "COG-LL-319h"
  Assigned label: "C"
- Molecule: "COc1ccc(-c2ccc3c(N4CCOC[C@@H]4C)nc(N4CCOC[C@@H]4C)nc3n2)cc1CO [AZD8055] (top concentration 10000 nM)"
  Test system: "COG-LL-319h"
  Assigned label: "C"
